# Test system: KM12 colon
# procedure-summary: NCI-60 one-dose screen, 48 h
# condition-label: 10 µM unless noted
The panel holds about 83,000 compounds, 20% with a hit somewhere; the sample as a whole holds those more often. Activity calls are given as the source filed them. The calls were made as follows: active = growth percent below 10; inactive = the rest.
Outcomes: active, inactive

- molecule: "CN1CCC(=C(c2ccccc2)c2ccccc2)C(c2ccccc2)C1 (stereo not drawn)"
  label-class: "inactive"
- molecule: "COc1cc2c(c(OC)c1OC)-c1ccc(NNC(=S)N(Cc3cccc(C[N+](Cc4cccc(CNC56CC7CC(CC(C7)C5)C6)c4)(Cc4cccc(CNC56CC7CC(CC(C7)C5)C6)c4)Cc4cccc(CN(C(=S)NNc5ccc6c(cc5=O)[C@@H](NC(C)=O)CCc5cc(OC)c(OC)c(OC)c5-6)C56CC7CC(CC(C7)C5)C6)c4)c3)C34CC5CC(CC(C5)C3)C4)c(=O)cc1[C@@H](NC(C)=O)CC2 (stereo partly drawn)"
  label-class: "active"
- molecule: "COc1ccc2c(c1)oc1c(C)c3c(c(C)c12)C(=O)N(CCN1CCOCC1)C3=O"
  label-class: "inactive"
- molecule: "Cc1ccc(-n2c3c(c(-c4ccccc4)c2-c2ccccc2)C2=NCCN2C=N3)cc1"
  label-class: "inactive"
- molecule: "O=C1Nc2ccccc2/C1=C\\c1c(-c2ccc(F)cc2)nc2ccccn12"
  label-class: "inactive"
- molecule: "O=C(/C(=C\\c1ccc([N+](=O)[O-])cc1)S(=O)Cc1ccc(Cl)cc1)c1ccc(Cl)cc1 (stereo not drawn)"
  label-class: "inactive"
- molecule: "COc1cccc(-c2ccc3c(c2)NC(=O)/C3=C\\c2ccc[nH]2)c1"
  label-class: "active"
- molecule: "CC(=O)CCC(=O)OCc1cc(=O)c(O)co1"
  label-class: "inactive"
